Values were extracted from patent EP0302934A1.

# experimental_protocol: in vivo
# Set-up: species or system mice
# assay_context: mouse, po
reported_endpoint: LD50 at 120 h

input: Tell me the measured LD50 at 120 h of CC1C=CC(C)C2C(=O)N(c3cc(Cl)cc(Cl)c3)C(=O)C12 (stereo not shown) , please.
output: ≥ 1000 mg/kg

====

Measured No. of fallen cases by item
# Tested on: ICR male mice
# experimental_protocol: Horizontal wire test
# Assay type: in vivo
# assay_context: maximum number of fallen mice out of 6 per group; 100 mg/kg-body weight orally, suspended in 0.4% aqueous carboxymethyl cellulose
# respond with the number and nothing more

Solved cases (3 shown):
>>> data_value("CC1C=CCC2C(=O)N(c3cc(Cl)cc(Cl)c3)C(=O)C12 (stereo not shown)")
5
>>> data_value("CC1C=CC(C)C2C(=O)N(c3cc(Cl)cc(Cl)c3)C(=O)C12 (stereo not shown)")
3
>>> data_value("CC1C=CC(C)C(C(=O)Nc2cc(Cl)cc(Cl)c2)C1C(=O)[O-].[Na+] (stereo not shown)")
3

Field: next molecule
input: Look up No. of fallen cases with ICR male mice for this molecule: CC1CCC(C)C2C(=O)N(c3cc(Cl)cc(Cl)c3)C(=O)C12 (stereo not shown)
output: 3
